tested on: HL-60(TB) leukemia; assay: NCI-60 one-dose screen, 48 h; conditions: 10 µM unless noted
Compounds without any hit were thinned out: in the full panel of roughly 83,000, 20% have a hit. Calls of active or inactive are those of the source. How the source made its calls: active means growth percent below 10; inactive means the rest.
Outcomes: active, inactive

compound	label_class
Clc1ccc2c(c1)C(c1c[nH]c3ccccc13)(c1c[nH]c3ccccc13)CCO2	inactive
O=C(Nc1ccc2ncnc(Nc3ccc(F)c(Cl)c3)c2c1)c1cccs1	inactive
COc1ccc(-c2cc(-c3ccccc3)nc(NCCNc3ccnc4cc(Cl)ccc34)n2)cc1	active
O=c1c2cc(Cl)ccc2oc2ccc(OCCCCCN3CCCCC3)cc12	inactive
O=C1CN(Cc2ccc(C(=O)NO)cc2)C(=O)[C@@H](Cc2ccccc2)N1	inactive
Nc1nc(Nc2ccc(OCc3cccc(F)c3)cc2)c2c(n1)[nH]c1ccc(O)cc12	active
NC(=S)N/N=C\c1nccc2c(C(F)(F)C(F)(F)C(F)(F)F)cccc12	active
C=C(CNCCO)[C@@H]1CC[C@]2(CO)CC[C@]3(C)[C@H](CC[C@@H]4[C@@]5(C)CCC(NCCc6ccc(O)cc6)C(C)(C)[C@@H]5CC[C@]43C)[C@@H]12 (some centres undefined)	active
O=C1CCC/C=C\C[C@H]2C=CC(=O)/C2=C/C[C@H](CCc2cccc(C(F)(F)F)c2)O1	active
